Tested on: pigweed (Amaranthus retroflexus)
METHOD NOTES: Test A preemergence
Type: in vivo
TEST CONTEXT: Amaranthus retroflexus, pre-emergence, 240 h, 31 g ai/ha, Preemergence; 0 to 100 scale where 0 is no effect and 100 is complete control; read-out: Pigweed plant response rating
QUANTITY MEASURED: pest or weed control at 31 g/ha
Answer as a quantity: numeral, then unit.

These recorded examples may help you get a feel for the data.
COc1cccc([C@H]2CN(C)C(=O)[C@@H]2C(=O)Nc2cccc(F)c2F)c1 : 0%
CN1C[C@H](c2ccc(C(F)(F)F)cn2)[C@@H](C(=O)Nc2cccc(F)c2F)C1=O : 40%
CSc1ccccc1NC(=O)[C@H]1C(=O)NC[C@@H]1c1ccc(C(F)(F)F)cn1 : 0%

# input Look up and report measured pest or weed control at 31 g/ha for this entry: O=C1NC[C@H](c2ccc(C(F)(F)F)cn2)[C@H]1C(=O)Nc1ccc(F)c(F)c1F
# output 0%

# input Look up and report measured pest or weed control at 31 g/ha for this entry: CN1C[C@H](c2cccc(C#N)c2)[C@@H](C(=O)Nc2cccc(F)c2F)C1=O
# output 0%

# input Look up and report measured pest or weed control at 31 g/ha for this entry: Cc1c(F)cccc1NC(=O)[C@H]1C(=O)N(C)C[C@@H]1c1cc(C(F)F)cs1
# output 0%
